Entry source: PubChem BioAssay AID617

Known IC50 of a selection of compounds
- Test system: E. coli BW25113 ΔtolC growth inhibition, OD615
- procedure_details: growth inhibitors of E. coli tolC mutant, dose response, strain BW25113 ΔtolC::kan (AID 617);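 further: growth read after 20 h at 37 °C with compound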
assay_metric: IC50

compound=c1ccc(Cn2nnc3c(N4CCN(Cc5ccc6c(c5)OCO6)CC4)ncnc32)cc1 assay_metric=IC50 recorded_result="22.6 µM"
compound="Cc1cc(C2N=C(N)Nc3nc4ccccc4n32)c(C)n1-c1ccccc1Cl (configuration not stated)" assay_metric=IC50 recorded_result="6.74 µM"
compound=CCCCCn1c(SCCC(C)C)nc2c1c(=O)[nH]c(=O)n2C assay_metric=IC50 recorded_result="38 µM"
compound=COc1ccc(NS(=O)(=O)c2ccc3c(c2)Cc2ccccc2-3)cn1 assay_metric=IC50 recorded_result="10.7 µM"
compound="OC(c1cccc(OCc2ccccc2)c1)c1nnc(-c2ccccc2)o1 (configuration not stated)" assay_metric=IC50 recorded_result="72.1 µM"
compound=COc1ccccc1-c1nnc2sc(COc3ccc(Cl)cc3)nn12 assay_metric=IC50 recorded_result="16.4 µM"
compound=CCOC(=O)c1cn(CC)c2cc(N3CCOCC3)c(F)cc2c1=O assay_metric=IC50 recorded_result="0.78 µM"
compound=Cc1cc(NC(=O)c2ccccc2)sc1C assay_metric=IC50 recorded_result="5.59 µM"
compound=CCCCCC(=O)Nc1ccccc1N1CCN(c2ccccc2)CC1 assay_metric=IC50 recorded_result="20.6 µM"
compound=Cn1c(=O)c2c(nc(N3CCCCCC3)n2Cc2cccc3ccccc23)n(C)c1=O assay_metric=IC50 recorded_result="7.33 µM"
compound=O=C(NC1CCCCC1)c1sc(=S)n2c1[nH]c(=O)c1ccccc12 assay_metric=IC50 recorded_result="0.83 µM"
compound="CCOC(=O)C1CCN(C(c2cccnc2)c2c(NC(=O)c3ccco3)sc(C)c2C)CC1 (configuration not stated)" assay_metric=IC50 recorded_result="13.6 µM"
compound="CC1CCC2C(C1)c1sc(=O)[nH]c1SC2(C)C (configuration not stated)" assay_metric=IC50 recorded_result="7.77 µM"
compound=O=C(c1cccc(F)c1)N1CCN(C(=O)c2cc(-c3ccc(Cl)cc3Cl)on2)CC1 assay_metric=IC50 recorded_result="9.75 µM"
compound=O=C(Nc1ccc2c(c1)OCO2)c1ccc(COc2ccc3c(c2)CCC3)o1 assay_metric=IC50 recorded_result="7.79 µM"
compound=COc1ccc(C(C)(C)C)cc1NC(=O)Nc1ccc2c(c1)OCO2 assay_metric=IC50 recorded_result="5.28 µM"
compound=Brc1ccc(-c2nc(-c3ccccc3)no2)o1 assay_metric=IC50 recorded_result="30.1 µM"
compound=Cc1onc(-c2c(F)cccc2Cl)c1C(=O)Nc1nc2c(s1)CCCC2 assay_metric=IC50 recorded_result="19.4 µM"
compound=Cc1ccc2[nH]c(=O)c(CN(Cc3nnnn3Cc3ccccc3)C3CCCC3)cc2c1 assay_metric=IC50 recorded_result="53.3 µM"
compound="O=C1c2[nH]nc(-c3ccccc3O)c2C(c2cccc(Cl)c2)N1CC1CCCO1 (configuration not stated)" assay_metric=IC50 recorded_result="4.35 µM"
compound=COC(=O)CSc1nc(N2CCCCC2)c2c(c1C#N)CCCC2 assay_metric=IC50 recorded_result="12.6 µM"
compound=Cc1cc(N2CCN(c3ccccc3)CC2)nc(-c2ccccc2)n1 assay_metric=IC50 recorded_result="14.3 µM"
